- experiment_summary: in vitro
- condition_details: human
- Description: Selectivity index, ratio of IC50 for cytotoxicity against human HepG2 cells to IC50 for antiplasmodial activity against asexual blood-stage Plasmodium falciparum D6
The entries below come with measured selectivity ratio values attached.
measurement_label: selectivity ratio

structure_notation	reported_measurement
COc1ccc(C2=C(c3ccc(OC)cc3)/C(=C/NC34C[C@H]5C[C@@H](C3)C[C@@H](C4)C5)N=C2c2ccc[nH]2)cc1	496
CCC1=C(CC)/C(=C/NC23C[C@H]4C[C@@H](C2)C[C@@H](C3)C4)N=C1c1cc2cc(Cl)ccc2[nH]1	47
CCC1=C(CC)/C(=C/NC23C[C@H]4C[C@@H](C2)C[C@@H](C3)C4)N=C1c1ccc(Br)[nH]1	222
CCC1=C(CC)/C(=C/NC23C[C@H]4C[C@@H](C2)C[C@@H](C3)C4)N=C1c1ccccc1O	93

---

- experiment_summary: Solubility of the compound in potassium phosphate buffer at pH 7.4 by UV-vis spectroscopy
- condition_details: buffer

structure_notation	unit_name	censor_symbol	solubility
FC(F)(F)[C@H]1CC[C@H](N/C=C2\N=C(c3ccc[nH]3)C3=C2CCCC3)CC1	µM	=	237
CCC1=C(CC)/C(=C/NC2CCCCCC2)N=C1c1ccc(-c2ccccc2)[nH]1	µM	=	13.1
CCC1=C(CC)/C(=C/NC2CCCCCC2)N=C1c1ccc(Cc2ccc(OC)cc2)[nH]1	µM	=	20.5
CC1=C(C)/C(=C/NC2CCCCCC2)N=C1c1ccc(C)[nH]1	µM	=	72.3
CCC1=C(C)/C(=C/NC2CCCCCCC2)N=C1c1ccc(C)[nH]1	µM	=	19.9
CCC1=C(C)/C(=C/NC2CCCCC2)N=C1c1ccc(C)[nH]1	µM	=	72.5
CCC1=C(CC)/C(=C/NC23C[C@H]4C[C@@H](C2)C[C@@H](C3)C4)N=C1c1ccc(-c2ccccc2)[nH]1	µM	<	3.125
CCC1=C(CC)/C(=C/NC2CCCCCC2)N=C1c1ccc(-c2ccc(OC)cc2)[nH]1	µM	=	45.7
CCC1=C(CC)/C(=C/NC2CCCCC2)N=C1c1cc2cc(Cl)ccc2[nH]1	µM	=	30.7
CCC1=C(CC)/C(=C/NC2CCCCCC2)N=C1c1ccc(Br)[nH]1	µM	<	3.125
CCC1=C(CC)/C(=C/NC2CCCCCC2)N=C1c1ccc(CC)[nH]1	µM	=	30.1
CCC1=C(C)/C(=C/NC2CCCCCC2)N=C1c1ccc(C)[nH]1	µM	=	25.7
COc1ccc(Cc2ccc(C3=N/C(=C\NC4CCCCC4)C4=C3CCCC4)[nH]2)cc1	µM	=	25.5
CCC1=C(CC)/C(=C/NC23C[C@H]4C[C@@H](C2)C[C@@H](C3)C4)N=C1c1ccc(-c2ccc(OC)cc2)[nH]1	µM	=	12.4
CCC1=C(CC)/C(=C/NC23C[C@H]4C[C@@H](C2)C[C@@H](C3)C4)N=C1c1ccc(Cc2ccc(OC)cc2)[nH]1	µM	=	26.2
CCC1=C(C)/C(=C/NC23C[C@H]4C[C@@H](C2)C[C@@H](C3)C4)N=C1c1ccc(CC)[nH]1	µM	=	3.95
CCC1=C(CC)/C(=C/NC2CCCCCC2)N=C1c1ccc(C)[nH]1	µM	=	35.9
CCc1ccc(C2=N/C(=C\NC3CCCCC3)C3=C2OCCO3)[nH]1	µM	=	131
CCC1=C(CC)/C(=C/NC23C[C@H]4C[C@@H](C2)C[C@@H](C3)C4)N=C1c1ccc(Cl)[nH]1	µM	=	40

---

- experiment_summary: in vitro
- condition_details: human, liver microsomes
Binning of microsomal CLint at 1 h into classes: range A: < 10 µL/min/mg; range B: ≥ 10 µL/min/mg and < 20 µL/min/mg; range C: ≥ 20 µL/min/mg

structure_notation	answer_label
CCC1=C(C)/C(=C/NC2CCCCC2)N=C1c1ccc(C)[nH]1	range A
COc1ccc(Cc2ccc(C3=N/C(=C\NC4CCCCCC4)C4=C3OCCO4)[nH]2)cc1	range B
CCC1=C(CC)/C(=C/NC23C[C@H]4C[C@@H](C2)C[C@@H](C3)C4)N=C1c1ccc(CC)[nH]1	range B
CCC1=C(C)/C(=C/NC2CCCCCC2)N=C1c1ccc(CC)[nH]1	range C
CCC1=C(CC)/C(=C/NC23C[C@H]4C[C@@H](C2)C[C@@H](C3)C4)N=C1c1cc2cc(Cl)ccc2[nH]1	range A
CCc1ccc(C2=N/C(=C\NC3CCCCCC3)C3=C2CCCC3)[nH]1	range A
CCC1=C(CC)/C(=C/NC2CCCCC2)N=C1c1ccc(CC)[nH]1	range B
CCC1=C(CC)/C(=C/NC2CCCCCC2)N=C1c1ccc(-c2ccc(OC)cc2)[nH]1	range C
CCC1=C(CC)/C(=C/NC2CCCCCC2)N=C1c1ccc(Cl)[nH]1	range C
CC1=C(C)/C(=C/NC2CCCCCC2)N=C1c1ccc(C)[nH]1	range C
CCC1=C(CC)/C(=C/NC2CCCCCCC2)N=C1c1ccc(Br)[nH]1	range A
CCC1=C(CC)/C(=C/NC2CCCCC2)N=C1c1cc2cc(Cl)ccc2[nH]1	range C
CCC1=C(CC)/C(=C/NC2CCCCC2)N=C1c1ccc(-c2ccccc2)[nH]1	range B
CCC1=C(CC)/C(=C/NC2CCCCCC2)N=C1c1ccc(CC)[nH]1	range B
CCC1=C(C)/C(=C/NC2CCCCC2)N=C1c1ccc(CC)[nH]1	range C
CCC1=C(C)/C(=C/NC2CCCCCC2)N=C1c1ccc(C)[nH]1	range C
COc1ccc(Cc2ccc(C3=N/C(=C\NC4CCCCC4)C4=C3CCCC4)[nH]2)cc1	range B
CCc1ccc(C2=N/C(=C\NC3CCCCC3)C3=C2CCCC3)[nH]1	range A
CCC1=C(CC)/C(=C/NC2CCCCCC2)N=C1c1ccc(C)[nH]1	range B
CCC1=C(CC)/C(=C/NC2CCCCC2)N=C1c1ccc(C)[nH]1	range C

---

- experiment_summary: Solubility of the compound in potassium phosphate buffer at pH 7.4 by UV-vis spectroscopy
- condition_details: buffer

structure_notation	censor_symbol	solubility, µM
CCC1=C(CC)/C(=C/NC2CCCCCCC2)N=C1c1ccc(CC)[nH]1	<	3.125
C(/NC1CCCCC1)=C1/N=C(c2ccc[nH]2)C2=C1CCCC2	=	294
COc1ccc(Cc2ccc(C3=N/C(=C\NC4CCCCC4)C4=C3OCCO4)[nH]2)cc1	=	16.4
CCC1=C(CC)/C(=C/N[C@H]2CC[C@H](C)CC2)N=C1c1ccc[nH]1	=	205
C[C@H]1CC[C@H](N/C=C2\N=C(c3ccc[nH]3)C3=C2CCCC3)CC1	=	185
CCC1=C(C)/C(=C/NC2CCCCC2)N=C1c1ccc(CC)[nH]1	=	23
CC1=C(C)/C(=C/NC2CCCCC2)N=C1c1ccc(C)[nH]1	=	168
CCc1ccc(C2=N/C(=C\NC3CCCCCCC3)C(C)=C2C)[nH]1	=	57.7
CCC1=C(CC)/C(=C/NC2CCCCC2)N=C1c1ccc(Cl)[nH]1	=	22.6
CCC1=C(CC)/C(=C/NC2CCCCC2)N=C1c1ccc(-c2ccccc2)[nH]1	<	3.125

---

- experiment_summary: Metabolic stability in mouse liver microsomes assessed as half life measured up to 60 mins by LC/MS analysis
- Assay type: ADME, Microsome
The entries below come with measured half-life values attached.

structure_notation	half-life
CCC1=C(CC)/C(=C/NC23C[C@H]4C[C@@H](C2)C[C@@H](C3)C4)N=C1c1ccc(C)[nH]1	> 60 min
FC(F)(F)[C@H]1CC[C@H](N/C=C2\N=C(c3ccc[nH]3)C3=C2CCCC3)CC1	> 60 min
CCC1=C(C)/C(=C/NC2CCCCCC2)N=C1c1ccc(CC)[nH]1	> 60 min
CCC1=C(CC)/C(=C/NC2CCCCCCC2)N=C1c1ccc(Cc2ccc(OC)cc2)[nH]1	> 60 min
COC1=C(OC)/C(=C/NC2CCCCC2)N=C1c1ccc[nH]1	18.7 min
CCC1=C(CC)/C(=C/NC23C[C@H]4C[C@@H](C2)C[C@@H](C3)C4)N=C1c1ccc(-c2ccccc2)[nH]1	15.1 min
CCC1=C(CC)/C(=C/N[C@H]2CC[C@H](C(=O)OC)CC2)N=C1c1ccc[nH]1	12.6 min
CCC1=C(CC)/C(=C/NC23CC4CC(CC(C4)C2)C3)N=C1c1cc2ccccc2[nH]1	49.1 min
C(/NC12C[C@H]3C[C@@H](C1)C[C@@H](C2)C3)=C1/N=C(c2ccc[nH]2)C2=C1OCCO2	27.9 min
CCC1=C(C)/C(=C/NC2CCCCC2)N=C1c1ccc(CC)[nH]1	> 60 min
CCC1=C(CC)/C(=C/NC23C[C@H]4C[C@@H](C2)C[C@@H](C3)C4)N=C1c1cc2cc(OC)ccc2[nH]1	> 60 min
CCC1=C(CC)/C(=C/NC23C[C@H]4C[C@@H](C2)C[C@@H](C3)C4)N=C1c1ccc(Br)[nH]1	> 60 min
CCC1=C(C)/C(=C/NC2CCCCCC2)N=C1c1ccc(C)[nH]1	> 60 min
CCC1=C(CC)/C(=C/NC2CCCCCC2)N=C1c1ccc(Cc2ccc(OC)cc2)[nH]1	> 60 min
CCc1ccc(C2=N/C(=C\NC3CCCCC3)C3=C2CCCC3)[nH]1	> 60 min
CCc1ccc(C2=N/C(=C\NC3CCCCC3)C3=C2OCCO3)[nH]1	16.7 min
C(/NC1CCCCCC1)=C1/N=C(c2ccc[nH]2)C2=C1OCCO2	19.5 min
COc1ccc(Cc2ccc(C3=N/C(=C\NC4CCCCC4)C4=C3OCCO4)[nH]2)cc1	> 60 min
